Measured pIC50, listed per entry for reference.
# assayed_system: PAK2 (Homo sapiens, UniProt Q13177)
# Sequence (Q13177 whole entry): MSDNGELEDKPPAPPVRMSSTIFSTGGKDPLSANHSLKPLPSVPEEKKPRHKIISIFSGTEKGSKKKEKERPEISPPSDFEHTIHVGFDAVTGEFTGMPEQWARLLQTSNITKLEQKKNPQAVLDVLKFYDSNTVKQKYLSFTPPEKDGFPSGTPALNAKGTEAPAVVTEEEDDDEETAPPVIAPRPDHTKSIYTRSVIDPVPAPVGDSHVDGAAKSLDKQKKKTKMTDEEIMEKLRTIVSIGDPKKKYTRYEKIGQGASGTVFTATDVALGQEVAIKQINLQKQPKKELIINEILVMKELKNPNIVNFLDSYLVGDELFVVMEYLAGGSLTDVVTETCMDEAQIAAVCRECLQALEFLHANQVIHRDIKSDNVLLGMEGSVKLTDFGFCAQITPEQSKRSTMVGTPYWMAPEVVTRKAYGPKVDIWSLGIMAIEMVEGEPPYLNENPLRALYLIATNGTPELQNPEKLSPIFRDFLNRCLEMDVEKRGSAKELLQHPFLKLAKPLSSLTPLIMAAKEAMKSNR
# experiment_summary: Z'Lyte fluorescence-based (FRET) PAK kinase assay, PAK2
# Type: biochemical
# measurement_context: Table 1 of Example 100; 75 μM ATP
pIC50: −log10 of the molar value.

                                   compound        result
0  O=c1ccc2cnc(Nc3ccc(NC4CCCNC4)cc3)nc2n1Cc1ccccc1C(F)(F)F (stereo not drawn)        > 6.00
1  CN1CCN(c2ccc(Nc3ncc4ccc(=O)n(Cc5cccnc5)c4n3)cc2)CC1        < 5.00
2  Cc1cc(F)ccc1Cn1c(=O)ccc2cnc(Nc3ccc(N4CCN(C)CC4)cc3)nc21  5.00 to 6.00
3  Cc1cccnc1Cn1c(=O)ccc2cnc(Nc3ccc(N4CCN(C)CC4)cc3)nc21  5.00 to 6.00
4  CN(c1ccc(Nc2ncc3ccc(=O)n(Cc4ccccc4C(F)(F)F)c3n2)cc1)C1CCCNC1 (stereo not drawn)        > 6.00
5  CN1CCCC(Nc2ccc(Nc3ncc4ccc(=O)n(Cc5ccccc5C(F)(F)F)c4n3)cc2)C1 (stereo not drawn)        > 6.00
6  CN(C)c1ccc(Nc2ncc3ccc(=O)n(C4CCCC4)c3n2)cc1        < 5.00
7  Cc1ccc(C)c(Cn2c(=O)ccc3cnc(Nc4ccc(N5CCN(C)CC5)cc4)nc32)c1  5.00 to 6.00

Prompt line: Form field: pIC50 recorded for O=c1ccc2cnc(Nc3ccc(N4CCNCC4)cc3)nc2n1Cc1ccccc1C(F)(F)F with PAK2 (Homo sapiens, UniProt Q13177) (enter value)
Response line: > 6.00

Prompt line: Same lookup for CN1CCN(c2ccc(Nc3ncc4ccc(=O)n(Cc5ccccc5SC(F)(F)F)c4n3)cc2)CC1 , please.
Response line: > 6.00

Prompt line: Now try CN1CCN(c2ccc(Nc3ncc4ccc(=O)n(Cc5ccccc5C#N)c4n3)cc2)CC1 .
Response line: > 6.00

Prompt line: Can you handle COc1ccc(F)cc1Cn1c(=O)ccc2cnc(Nc3ccc(N4CCN(C)CC4)cc3)nc21 next?
Response line: 5.00 to 6.00

Prompt line: Next entry: CN1CCN(c2ccc(Nc3ncc4ccc(=O)n(Cc5ccccc5OC(F)F)c4n3)cc2)CC1
Response line: > 6.00
